The reported measurements were obtained from the supplement of paper PMC10567573.

B1: SFRS1 (parent)
chain: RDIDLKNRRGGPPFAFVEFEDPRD

# Variants of: B1
# Assay Name: protein stability index of a GFP-peptide fusion (GPS, HEK-293T) (PSI 1-6); higher = more stable;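 further: lentivirally expressed fusions sorted by FACS into six bins by GFP to DsRed ratio, PSI derived from sequencing read proportions per bin multiplied by bin number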
# Experimental Conditions: c terminus: a fixed tail appended
We use 4 as the dividing line for protein stability index: on or above the line is fulfilled, below is not fulfilled.

> print(dat)
    sequence.change          group
 1             G10N  not fulfilled
 2              D2S  not fulfilled
 3             R23Q      fulfilled
 4             V17E      fulfilled
 5              D4H  not fulfilled
 6             E20K  not fulfilled
 7              R1I  not fulfilled
 8              N7V  not fulfilled
 9             E20F  not fulfilled
10             R23H      fulfilled
11             R23T      fulfilled
12              I3E      fulfilled
13             F16H      fulfilled
14              N7Y  not fulfilled
15             P12H      fulfilled
16             D21T  not fulfilled
17              D4Q  not fulfilled
18             P12G      fulfilled
19             G10Y  not fulfilled
20             P13V  not fulfilled
21              R8K      fulfilled
22             E20M  not fulfilled
23             P13F  not fulfilled
24             D24I  not fulfilled
25             F16V      fulfilled
26             G11N  not fulfilled
